Entry source: the Kinase Knowledgebase extract (Sharma et al. 2016)

IC50: recorded values
Target: EGFR (human)
Details: sf-539
Report only the number, with the unit µM understood.

compound=O=C(NCCc1ccccc1)c1cccc(NCc2cc(O)ccc2O)c1 units_of_measure=µM assay_result=15
compound=O=C(NCCCc1ccccc1)c1cc(NCc2cc(O)ccc2O)ccc1O units_of_measure=µM assay_result=16
compound=O=C(NCCc1ccc(Br)cc1)c1cc(NCc2cc(O)ccc2O)ccc1O units_of_measure=µM assay_result=15.8

Input line: Entry under review: `O=C(NCc1ccccc1)c1cc(NCc2cc(O)ccc2O)ccc1O` . Reported IC50?
Output line: 21

Input line: Entry under review: `O=C(NCCc1ccc(F)cc1)c1cc(NCc2cc(O)ccc2O)ccc1O` . Reported IC50?
Output line: 9.2

Input line: Entry under review: `O=C(NCCc1ccccn1)c1cc(NCc2cc(O)ccc2O)ccc1O` . Reported IC50?
Output line: 29

----------
Molecular target: EGFR (human) (UniProt P00533)
Sequence (P00533 whole entry, looked up): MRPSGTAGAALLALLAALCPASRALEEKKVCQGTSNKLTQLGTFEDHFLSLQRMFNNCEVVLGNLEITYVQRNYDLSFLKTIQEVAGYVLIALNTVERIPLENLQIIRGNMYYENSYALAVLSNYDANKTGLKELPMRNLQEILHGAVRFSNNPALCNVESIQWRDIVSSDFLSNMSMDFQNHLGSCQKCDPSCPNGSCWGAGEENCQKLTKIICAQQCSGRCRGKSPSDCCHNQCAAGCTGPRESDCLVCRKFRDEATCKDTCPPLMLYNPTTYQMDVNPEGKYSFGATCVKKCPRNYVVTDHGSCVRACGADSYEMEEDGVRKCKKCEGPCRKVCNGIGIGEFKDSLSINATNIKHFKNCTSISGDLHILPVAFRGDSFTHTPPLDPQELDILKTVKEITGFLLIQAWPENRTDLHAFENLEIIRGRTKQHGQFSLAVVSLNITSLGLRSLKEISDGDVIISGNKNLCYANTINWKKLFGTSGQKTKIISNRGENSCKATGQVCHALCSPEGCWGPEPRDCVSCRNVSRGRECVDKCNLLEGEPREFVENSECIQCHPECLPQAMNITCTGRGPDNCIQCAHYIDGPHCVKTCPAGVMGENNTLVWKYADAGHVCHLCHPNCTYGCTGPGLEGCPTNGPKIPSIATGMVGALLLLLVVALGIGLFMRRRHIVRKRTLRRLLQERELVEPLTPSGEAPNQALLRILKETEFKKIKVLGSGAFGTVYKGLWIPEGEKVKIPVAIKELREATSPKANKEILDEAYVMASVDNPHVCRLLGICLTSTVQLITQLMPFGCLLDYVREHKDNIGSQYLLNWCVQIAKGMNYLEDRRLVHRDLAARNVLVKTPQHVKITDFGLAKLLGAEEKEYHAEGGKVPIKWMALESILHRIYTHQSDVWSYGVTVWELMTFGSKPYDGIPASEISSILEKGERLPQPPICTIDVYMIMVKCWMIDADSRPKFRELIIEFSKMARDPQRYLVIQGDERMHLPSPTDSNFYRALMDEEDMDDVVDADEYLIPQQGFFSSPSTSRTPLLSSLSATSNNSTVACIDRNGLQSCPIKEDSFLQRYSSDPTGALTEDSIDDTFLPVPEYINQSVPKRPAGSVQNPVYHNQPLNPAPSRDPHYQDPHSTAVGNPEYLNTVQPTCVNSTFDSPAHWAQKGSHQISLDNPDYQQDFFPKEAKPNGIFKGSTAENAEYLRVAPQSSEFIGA
Details: uacc-62
pIC50: recorded values
pIC50 here: minus log base 10 of the concentration, concentration in moles per litre.

compound=O=C(NCc1ccccc1)c1ccc(NCc2cc(O)ccc2O)cc1 measurement_type=pIC50 assay_result=4.92
compound=O=C(NCCc1ccccc1)c1ccc(NCc2cc(O)ccc2O)cc1 measurement_type=pIC50 assay_result=5.03
compound="O=C(NC1CCc2ccccc2C1)c1cc(NCc2cc(O)ccc2O)ccc1O (stereo unspecified)" measurement_type=pIC50 assay_result=4.85
compound=O=C(NCc1ccccc1)c1cc(NCc2cc(O)ccc2O)ccc1O measurement_type=pIC50 assay_result=4.82
compound=O=C(NCCc1ccc(Br)cc1)c1cc(NCc2cc(O)ccc2O)ccc1O measurement_type=pIC50 assay_result=5.07

Now for another entry.
Input line: Entry under review: `O=C(NCCN1CCOCC1)c1cc(NCc2cc(O)ccc2O)ccc1O` . Reported pIC50?
Output line: 4.77

----------
Target: EGFR (human) (UniProt P00533)
Conditions: ccrf-cem
pIC50: recorded values
pIC50 here: minus log base 10 of the concentration, concentration in moles per litre.

Some solved cases for reference:
compound=O=C(NCCc1ccccn1)c1cc(NCc2cc(O)ccc2O)ccc1O assay_result=6.00
compound="O=C(NC1CCc2ccccc2C1)c1cc(NCc2cc(O)ccc2O)ccc1O (stereo not drawn)" assay_result=5.85

Input line: EGFR (human) (UniProt P00533) / pIC50 / `O=C(NCCCc1ccccc1)c1ccc(NCc2cc(O)ccc2O)cc1` : value?
Output line: 6.08

----------
Target: EGFR (human) (UniProt P00533)
Conditions: mda-mb-435
IC50: recorded values

compound=O=C(NCCc1ccccc1)c1cccc(NCc2cc(O)ccc2O)c1 assay_result="15 µM"
compound=CCCCCCNC(=O)c1cc(NCc2cc(O)ccc2O)ccc1O assay_result="15 µM"

Input line: EGFR (human) (UniProt P00533) / IC50 / `CCCCCCCCCCCCNC(=O)c1cc(NCc2cc(O)ccc2O)ccc1O` : value?
Output line: 3.2 µM

Input line: EGFR (human) (UniProt P00533) / IC50 / O=C(NC1CCc2ccccc2C1)c1cc(NCc2cc(O)ccc2O)ccc1O (stereo not drawn) : value?
Output line: 9.2 µM

Input line: EGFR (human) (UniProt P00533) / IC50 / `O=C(NCCCc1ccccc1)c1cc(NCc2cc(O)ccc2O)ccc1O` : value?
Output line: 18 µM

Input line: EGFR (human) (UniProt P00533) / IC50 / `O=C(NCCN1CCOCC1)c1cc(NCc2cc(O)ccc2O)ccc1O` : value?
Output line: 13 µM

Input line: EGFR (human) (UniProt P00533) / IC50 / `O=C(NCCc1ccc(Br)cc1)c1cc(NCc2cc(O)ccc2O)ccc1O` : value?
Output line: 10 µM

Input line: EGFR (human) (UniProt P00533) / IC50 / `O=C(NCCc1ccc(F)cc1)c1cc(NCc2cc(O)ccc2O)ccc1O` : value?
Output line: 13 µM
